B1: PPFIA4 (parent)
chain: YAGNLHESGVHGALLALDENFDHN

variants of: B1; assay: protein stability index of a GFP-peptide fusion (GPS, HEK-293T) (PSI 1-6); higher = more stable; settings: c terminus: a fixed tail appended;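 note: lentivirally expressed fusions sorted by FACS into six bins by GFP to DsRed ratio, PSI derived from sequencing read proportions per bin multiplied by bin number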
// classify(record): look up protein stability index in ranges class 0: < 2; class 1: ≥ 2 and < 3; class 2: ≥ 3

Worked set:
MUTATION_CODE: A2L
CAT: class 2

MUTATION_CODE: H6S
CAT: class 1

MUTATION_CODE: D22C
CAT: class 0

MUTATION_CODE: L17W
CAT: class 1

MUTATION_CODE: G12S
CAT: class 2

Query :: The entry to classify is N4M ; which class holds it?
Result :: class 1

Query :: Now the variant L14S
Result :: class 2

Query :: Now the variant H23R
Result :: class 1

Query :: Now the variant E7I
Result :: class 0
